# Experiment Notes: acute toxicity (LD50 Mouse), Litchfield and Wilcoxon
# Condition Summary: in vivo, ip
Counter-ions that a name gives are not always drawn.
Hi! Just check whether LD50 is below 200 mg/kg. Below gives Satisfied, equal or above gives Not satisfied.

Prompt line: Please state whether LD50 is below 200 mg/kg for Clc1ccccc1OCCCNCCc1ccncc1 [Compound F, dioxalate dihydrate]
Response line: Not satisfied

Prompt line: Would you kindly verify if LD50 of Clc1ccccc1OCCCCNCCc1ccncc1 [Compound K, dioxalate monohydrate] is strictly less than 200 mg/kg?
Response line: Satisfied

Prompt line: In plain terms, does COc1ccccc1OCCNCCc1ccncc1 [Compound A, HCl] come in under 200 mg/kg for LD50?
Response line: Satisfied

Prompt line: Record Cc1cccnc1CNCCOc1ccccc1Cl [Compound H, hydrate] : is its LD50 strictly below 200 mg/kg?
Response line: Not satisfied

Prompt line: Take the compound COc1ccccc1OCCNCCc1ccccn1 [Compound B, HCl] and say whether its LD50 is less than 200 mg/kg.
Response line: Satisfied

Prompt line: Take the compound COc1ccccc1OCCNCc1ccccn1 [Compound D, HCl] and say whether its LD50 is less than 200 mg/kg.
Response line: Satisfied

Prompt line: Given the entry N#Cc1ccccc1OCCNCCc1ccncc1 [Compound L, dioxalate hydrate] , would its reported LD50 be below 200 mg/kg?
Response line: Satisfied

Prompt line: Say whether its LD50 is strictly beneath 200 mg/kg. Entry: COc1ccccc1OCCNCc1cccnc1 [Compound C, HCl]
Response line: Satisfied

Prompt line: I'd appreciate it if you could check whether COc1ccccc1OCCNCc1ccncc1 [Compound E, HCl] has LD50 smaller than 200 mg/kg.
Response line: Not satisfied
